Would you kindly list TGI for each of these molecules?
- Tested on: UACC-62 melanoma
- experiment_summary: NCI tumour cell line growth inhibition, 48 h
One number for each entry, in µM.

Past entries and their recorded results:
molecule	endpoint_name	value_measured
CCN(CC)CCCC(C)Nc1cc(-c2ccc(C(F)(F)F)cc2)c(C#N)c2nc3ccccc3n12 (stereo not given)	TGI	3.38
Cn1cc(-c2csc(-c3cn(C)c4ccc(Br)cc34)n2)c2cnccc21	TGI	3.21
C=CC(=O)N1C/C(=C\c2ccccc2)C(=O)/C(=C/c2ccccc2)C1	TGI	3.68

Find the measured TGI of `c1ccc(N=c2snc3scc(-c4ccccc4)n23)cc1` and report it.
92.1

* * *

- System: HL-60(TB) leukemia
- experiment_summary: NCI tumour cell line growth inhibition, 48 h; in the data active = GI50 below about 0.43 µM; inactive = the rest
Would you mind answering with one of these outcomes? 1 for active, -1 for inactive

COC(=O)[C@@]1(Cc2ccccc2)[C@H]2c3cc(C(=O)N4CCCC4)n(Cc4ccc(OC)c(OC)c4)c3C[C@H]2CN1C(=O)c1ccccc1 -1

For `O=C1/C(=C\c2ccc(F)cc2)CN(C(=O)c2ccc([N+](=O)[O-])cc2)C/C1=C\c1ccc(F)cc1` , which call appears in the assay record?
-1

For `COC(=O)[C@H]1[C@@H](O)[C@@]2(O)c3c(OC)cc(O[C@@H]4O[C@@H]([C@H](O)CO)CO[C@H]4OC)cc3O[C@@]2(c2ccc(OC)cc2)[C@@H]1c1ccccc1` , which call appears in the assay record?
1

For `N.N.N.N.O=NN1CCCCCC1(P(=O)([O-])[O-])P(=O)([O-])[O-].[Pt+4].[Pt+4]` , which call appears in the assay record?
-1

* * *

- Test system: KM12 colon
- experiment_summary: NCI tumour cell line growth inhibition, 48 h
Would you kindly list TGI for each of these compounds?

Past entries and their recorded results:
compound	measured_on	value_measured
C1=Nc2ccc(cc2)N=Cc2ccccc2OCc2cccc(n2)COc2ccccc21	KM12 colon	> 100 µM
O=C(O)C1=C(C(=O)Nc2ccccc2)C2C=CC1C2 (stereo not drawn)	KM12 colon	> 100 µM
NCCCCCCCCn1c2c(c3ccccc3c1=O)C(=O)c1ccccc1-2	KM12 colon	4.59 µM

# per-item lookup of TGI; items listed below
1. O=C(Cc1nc2ccccc2s1)Nc1ccc(Cl)cc1
2. CCc1n[nH]c(=O)n1N1C(=O)CCC1=O
3. C=C[C@]1(O)CCC[C@]2(C)C(=O)CCC12C (stereo partly drawn)

["> 100 µM", "> 100 µM", "> 100 µM"]

* * *

- System: A498 renal
- experiment_summary: NCI tumour cell line growth inhibition, 48 h
endpoint_name: GI50

Past entries and their recorded results:
molecule	value_measured
CCOC(CCCNCCCn1c2c(c3cc(OC)c(OC)cc3c1=O)C(=O)c1cc3c(cc1-2)OCO3)OCC	5790 nM
COc1ccccc1/C=C/C(=O)c1c(O)cc2occc2c1OC	46000 nM
O=C1/C=C/[C@@H](O)[C@@H]2C[C@@H](O)C[C@H]2/C=C/CCC[C@H](CCc2ccc(C(F)(F)F)cc2)O1	53.3 nM

# per-item lookup of GI50; items listed below
1. COC(=O)[C@H]1C(=O)[C@@]2(C)[C@H]([C@H](OC(=O)c3ccccc3)[C@]3(O)C[C@H](OC(=O)[C@H](O)[C@@H](NC(=O)c4ccc(F)cc4)c4ccccc4)C(C)=C1C3(C)C)[C@]1(OC(C)=O)CO[C@@H]1C[C@@H]2O
2. CNC(=O)c1c(NC(=O)c2ccc(C(F)(F)F)cc2)sc2c1CCC(=O)C2
3. COc1c2c3ccccc3nc-2n(C)c2ccccc12
4. COC(=O)[C@H]1[C@@H](O)[C@@]2(O)c3c(OC)cc(O[C@@H]4O[C@@H]([C@H](O)CO)CO[C@H]4OC)cc3O[C@@]2(c2ccc(OC)cc2)[C@@H]1c1ccccc1

["31.5 nM", "2330 nM", "10100 nM", "5.37 nM"]

* * *

Would you kindly list TGI for each of these compounds?
- Test system: RXF 393 renal
- experiment_summary: NCI tumour cell line growth inhibition, 48 h
Give bare numbers, in µM.

Past entries and their recorded results:
compound	measured_on	endpoint_name	value_measured
Cc1ncc(C(=O)Nc2ccc(CN3CCN(C)CC3)c(C(F)(F)F)c2)cc1C#Cc1cnc(N)c2cnccc12	RXF 393 renal	TGI	0.399
O=C1OC2C(O)COC2(O)C1(O)C(C[N+](=O)[O-])c1ccc(Cl)cc1 (configuration not stated)	RXF 393 renal	TGI	9.21
CC1=C(C(=O)Nc2ccccc2)C(c2ccc([N+](=O)[O-])cc2)C(C(=O)Nc2ccccc2)=C(C)N1	RXF 393 renal	TGI	46.2
C[C@H]1CC[C@H]([C@@H](C)[C@H]2[C@@H](O)C[C@H]3[C@@H]4CC[C@H]5C[C@@H](O)CC[C@]5(C)[C@H]4CC[C@]23C)NC1	RXF 393 renal	TGI	47.7
CCOC(=O)C(Cc1c[nH]c2ccc([N+](=O)[O-])cc12)(NC(C)=O)C(=O)OCC	RXF 393 renal	TGI	261
Sc1ccc2ccccc2c1CNCc1ccccc1	RXF 393 renal	TGI	26
CC(C)CCSC1=CC(=O)c2ccccc2C1=O	RXF 393 renal	TGI	16.3
CCCc1cc(=O)oc2c(C=O)c(O)cc(O)c12	RXF 393 renal	TGI	53

Find the measured TGI of CC(C)(Br)C(Br)CCC(=CCBr)CBr (mixture of isomers) and report it.
6.48

* * *

- Tested on: SW-620 colon
- experiment_summary: NCI tumour cell line growth inhibition, 48 h
endpoint_name: TGI

Past entries and their recorded results:
molecule	TGI
CCN(CC)CC.CCOc1ccc(NC(=O)N=C=[N-])cc1.[CH-]1CCCCC1.[CH-]1CCCCC1.[CH-]1CCCCC1.[Cl-].[Sn+4]	0.0326 µM
CO/[N+]([O-])=C\C(=O)N/C=C/C(=O)O	> 100 µM
COc1c(C)c2c(c3c1c(=O)c1ccccc1n3C)C=CC(C)(C)O2	> 100 µM

# per-item lookup of TGI; items listed below
1. O=c1[nH]c(=O)n(C2OC(CO)C(O)C2O)c2ncc(-c3ccc(-c4ccccc4)cc3)nc12 (stereo unspecified)
2. Cc1cc2nc3c(C#N)c(-c4ccccc4)/c(=C\Nc4ccc(Cl)cc4)c(=O)n3c2cc1C
3. Oc1cccc(-c2ccc3c4c2O[C@H]2c5[nH]c6ccccc6c5C[C@@]5(O)[C@@H](C3)N(CC3CC3)CC[C@]425)c1
4. C=CCc1c(C)nc(C)nc1N/N=C/C=C/c1ccccc1
5. O=C1OC(c2ccccc2)=N/C1=C\c1ccc2ccccc2c1
6. c1ccc(CSC2(SCc3ccccc3)CCCC2)cc1
7. Cc1n[n+](CC(=O)c2ccccc2)c2sc(N)nn12

["> 20 µM", "> 100 µM", "6.15 µM", "> 100 µM", "> 100 µM", "> 10 µM", "> 100 µM"]

# per-item lookup of TGI; items listed below
1. COc1cc2c(c(OC)c1O)-c1ccc(OC)c(=O)cc1[C@@H](NC(=O)C(F)(F)F)CC2
2. CC1=CC(=O)CC(C)(C)C1(O)/C=C/C(C)=C/C(=O)O (stereo unspecified)

["> 100 µM", "> 100 µM"]

# per-item lookup of TGI; items listed below
1. COc1ccc(C2=Nn3c(nc4sc(C)c(C)c4c3=O)SC2)cc1
2. CCCCCCCCCCCCCCCCOCC(CN(C)CCN(C)C)OCCCCCCCCCCCCCCCC (stereo unspecified)

1. > 100 µM
2. > 100 µM

# per-item lookup of TGI; items listed below
1. CCOC(=O)N1CC2(C)C=CC1C(C(=O)OC)C2 (stereo unspecified)
2. O=C1Nc2cc(Cl)ccc2N=CC1NC(=O)C(c1ccccc1)c1ccccc1Cl (stereo unspecified)
3. Cc1ncc(C(=O)Nc2ccc(CN3CCN(C)CC3)c(C(F)(F)F)c2)cc1C#Cc1cnc(N)c2cnccc12
4. CC1=CC=C2c3ccccc3C=CN2C(=O)C1
5. COc1ccc(-c2nsc3c2NC(=O)CC3c2ccc(F)cc2)cc1 (stereo unspecified)
6. O=c1[nH]cc(/C=N\Nc2ccccc2)c(=O)[nH]1
7. c1ccc(CSc2ccccc2CN2CCN(Cc3ccccc3SCc3ccccc3)CCN(Cc3ccccc3SCc3ccccc3)CC2)cc1

["> 100 µM", "> 100 µM", "1.39 µM", "> 100 µM", "> 100 µM", "> 100 µM", "69.2 µM"]

* * *

- Tested on: NCI-H23 lung
- experiment_summary: NCI tumour cell line growth inhibition, 48 h
Would you kindly list TGI for each of these molecules?
One number for each entry, in µM.

molecule	unit_of_measure	TGI
C=CCc1c(C)nc(C)nc1N/N=C/C=C/c1ccccc1	µM	94

# next molecule below
Find the measured TGI of CC(N)C(=O)OCN1C(=O)C2C3C=CC(C2C1=O)C1C2C(=O)N(COC(=O)C(C)N)C(=O)C2C31 (stereo not given) and report it.
43.2
